Origin of measurements: patent EP1028948B1

# system: H3 receptors (Cavia porcellus, UniProt Q9JI35)
# Sequence (Q9JI35 whole entry): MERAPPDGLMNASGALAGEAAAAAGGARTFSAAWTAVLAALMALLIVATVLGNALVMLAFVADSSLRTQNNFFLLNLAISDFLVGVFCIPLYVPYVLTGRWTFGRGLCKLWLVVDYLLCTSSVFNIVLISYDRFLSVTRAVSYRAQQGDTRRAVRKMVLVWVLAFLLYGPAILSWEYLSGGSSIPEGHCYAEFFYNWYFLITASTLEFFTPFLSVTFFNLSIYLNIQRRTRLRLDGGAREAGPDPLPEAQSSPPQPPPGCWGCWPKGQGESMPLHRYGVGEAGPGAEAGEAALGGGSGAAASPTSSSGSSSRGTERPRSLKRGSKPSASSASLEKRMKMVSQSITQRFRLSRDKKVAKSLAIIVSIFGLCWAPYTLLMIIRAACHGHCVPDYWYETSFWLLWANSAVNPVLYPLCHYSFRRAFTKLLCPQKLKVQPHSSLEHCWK
pKi: −log10 of the molar value.
property-label: pKi

Problem: Give pKi; test system H3 receptors (Cavia porcellus, UniProt Q9JI35); molecule O=C(/C=C/c1ccc(Cc2c[nH]cn2)cc1)NCCc1ccc(Cl)cc1
Solution: 7.72 to 9.00
